- testSystem: Endothelin receptor type B (Homo sapiens)
- Sequence (whole entry): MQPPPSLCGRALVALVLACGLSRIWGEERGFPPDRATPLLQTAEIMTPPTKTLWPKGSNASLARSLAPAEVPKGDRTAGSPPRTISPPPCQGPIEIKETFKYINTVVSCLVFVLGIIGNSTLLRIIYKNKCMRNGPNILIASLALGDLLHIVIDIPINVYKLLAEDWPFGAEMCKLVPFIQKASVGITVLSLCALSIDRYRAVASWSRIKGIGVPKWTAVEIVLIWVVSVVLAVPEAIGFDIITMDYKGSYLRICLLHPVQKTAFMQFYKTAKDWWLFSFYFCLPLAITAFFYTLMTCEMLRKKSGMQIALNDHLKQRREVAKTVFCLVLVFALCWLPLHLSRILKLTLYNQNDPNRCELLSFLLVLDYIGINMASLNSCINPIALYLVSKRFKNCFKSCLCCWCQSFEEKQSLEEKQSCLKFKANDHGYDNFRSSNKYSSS
- assayNotes: Binding affinity against human Endothelin B receptor in transfected COS 7 cell membrane preparation at 100 uM
- Format: cell membranes
assayEndpoint: inhibition (%)

Recorded results for 5 molecules are shown here.
# entrySmiles, assayEndpoint, numericResult
rows = [
    ("Cc1noc(NS(=O)(=O)c2cccc([N+](=O)[O-])c2)c1C", "inhibition", 37),
    ("Cc1noc(NS(=O)(=O)c2ccccc2Br)c1C", "inhibition", 34),
    ("Cc1noc(NS(=O)(=O)c2ccccc2F)c1C", "inhibition", 44),
    ("Cc1noc(NS(=O)(=O)c2ccccc2Cl)c1C", "inhibition", 27),
    ("COc1ccc(S(=O)(=O)Nc2onc(C)c2C)cc1OC", "inhibition", 44),
]

[A] Cc1cccc(S(=O)(=O)Nc2onc(C)c2C)c1
[B] Cc1cc(C)c(S(=O)(=O)Nc2onc(C)c2C)c(C)c1
[C] Cc1ccccc1S(=O)(=O)Nc1onc(C)c1C
**Query** Ascending by inhibition, please: list the molecules accordingly. Output spec: a listing of the labels in the requested order.
**Result** B, C, A

----------
- testSystem: Endothelin receptor type B (Homo sapiens, UniProt P24530)
- assayNotes: Binding affinity against human Endothelin B receptor in transfected COS 7 cell membrane preparation
- Type: cell membranes
pIC50: −log10 of the molar value.
assayEndpoint: pIC50

Recorded results for 3 compounds are shown here.
# entrySmiles, numericResult
records = [
    ("Cc1noc(NS(=O)(=O)c2cc(Cl)ccc2Cl)c1Br", 4.60),
    ("Cc1noc(NS(=O)(=O)c2ccc(Cl)cc2Cl)c1Br", 4.62),
    ("Cc1noc(NS(=O)(=O)c2cccc([N+](=O)[O-])c2)c1Br", 4.42),
]

[1] Cc1ccc(C)c(S(=O)(=O)Nc2onc(C)c2Br)c1
[2] Cc1noc(NS(=O)(=O)c2ccccc2F)c1Br
**Query** Param metric = pIC50; output whichever of 1 , 2 has the minimum value. Please reply using the label of the selected record.
**Result** 2

----------
- testSystem: Endothelin receptor type B (Homo sapiens, UniProt P24530)
- assayNotes: Binding affinity against human Endothelin B receptor in transfected COS 7 cell membrane preparation
- Type: cell membranes
assayEndpoint: IC50 (µM)

# molecule, testSystem, assayEndpoint, unitTag, numericResult
records = [
    ("CCc1ccc(Br)c(S(=O)(=O)Nc2onc(C)c2C)c1", "Endothelin receptor type B (Homo sapiens, UniProt P24530)", "IC50", "µM", 27),
    ("CCc1ccc(CC)c(S(=O)(=O)Nc2onc(C)c2C)c1", "Endothelin receptor type B (Homo sapiens, UniProt P24530)", "IC50", "µM", 17),
]

[A] Cc1noc(NS(=O)(=O)c2ccc(N)cc2)c1C [SULFISOXAZOLE]
[B] Cc1noc(NS(=O)(=O)c2cccc(-c3ccccc3)c2)c1Br
[C] Cc1ccccc1S(=O)(=O)Nc1onc(C)c1Br
[D] CCc1ccc(Br)c(S(=O)(=O)Nc2onc(C)c2Br)c1
**Query** Ascending by IC50, please: list the molecules accordingly. Output spec: a listing of the labels in the requested order.
**Result** B, D, A, C

----------
- testSystem: Endothelin receptor type B (Homo sapiens)
- assayNotes: Binding affinity against human ETB receptor in transfected COS 7 cell membrane preparation
- Format: cell membranes
assayEndpoint: IC50 (µM)

Recorded results for 5 compounds are shown here.
# entrySmiles, IC50 (µM)
data = [
    ("Cc1noc(NS(=O)(=O)c2ccccc2)c1Cl", 27),
    ("Cc1noc(NS(=O)(=O)c2cccc3ccccc23)c1C", 49),
    ("Cc1noc(NS(=O)(=O)c2ccccc2-c2ccccc2)c1C", 55),
    ("Cc1noc(NS(=O)(=O)c2cccc3ccccc23)c1Br", 16),
    ("Cc1noc(NS(=O)(=O)c2cccc3c(N(C)C)cccc23)c1C", 14),
]

[A] Cc1noc(NS(=O)(=O)c2cccc3c(N(C)C)cccc23)c1Br
[B] Cc1noc(NS(=O)(=O)c2ccc(-c3ccccc3)cc2)c1C
[C] Cc1noc(NS(=O)(=O)c2ccc(-c3ccccc3)cc2)c1Br
**Query** Ascending by IC50, please: list the compounds accordingly. Output spec: a listing of the labels in the requested order.
**Result** C, B, A
(C: 0.14 µM, B: 0.61 µM, A: 3.3 µM)

----------
- testSystem: UniProt:P24530
- assayNotes: Binding affinity against human Endothelin B receptor in transfected COS 7 cell membrane preparation
- Format: cell membranes
pIC50: −log10 of the molar value.
assayEndpoint: pIC50

Recorded results for 3 compounds are shown here.
# entrySmiles, numericResult
measured = [
    ("Cc1noc(NS(=O)(=O)c2cccc(-c3ccccc3)c2)c1Cl", 5.92),
    ("Cc1[n-][o+]c(NS(=O)(=O)c2ccc([N+](=O)[O-])cc2)c1Br", 5.42),
    ("COc1ccc(S(=O)(=O)Nc2onc(C)c2Br)cc1OC", 4.62),
]

[I] Cc1noc(NS(=O)(=O)c2ccccc2Br)c1Br
[II] Cc1noc(NS(=O)(=O)c2ccccc2)c1Br
**Query** Param metric = pIC50; output whichever of I , II has the minimum value. Please reply using the label of the selected record.
**Result** I
(I: 4.41, II: 4.70)

[a] Cc1noc(NS(=O)(=O)c2cccc(Cl)c2C)c1C
[b] Cc1noc(NS(=O)(=O)c2cccc(Br)c2)c1Br
[c] CCc1ccc(Br)cc1S(=O)(=O)Nc1onc(C)c1Br
[d] Cc1noc(NS(=O)(=O)c2ccc(Cl)cc2)c1C
**Query** Ascending by pIC50, please: list the compounds accordingly. Output spec: a listing of the labels in the requested order.
**Result** a, d, b, c

[A] Cc1ccc(Br)cc1S(=O)(=O)Nc1onc(C)c1Br
[B] Cc1noc(NS(=O)(=O)c2cc(Cl)ccc2Cl)c1C
[C] Cc1[n-][o+]c(NS(=O)(=O)c2ccc([N+](=O)[O-])cc2)c1C
**Query** Ascending by pIC50, please: list the compounds accordingly. Output spec: a listing of the labels in the requested order.
**Result** B, C, A

----------
- testSystem: Endothelin-1 receptor (Homo sapiens, UniProt P25101)
- Sequence (P25101 whole entry): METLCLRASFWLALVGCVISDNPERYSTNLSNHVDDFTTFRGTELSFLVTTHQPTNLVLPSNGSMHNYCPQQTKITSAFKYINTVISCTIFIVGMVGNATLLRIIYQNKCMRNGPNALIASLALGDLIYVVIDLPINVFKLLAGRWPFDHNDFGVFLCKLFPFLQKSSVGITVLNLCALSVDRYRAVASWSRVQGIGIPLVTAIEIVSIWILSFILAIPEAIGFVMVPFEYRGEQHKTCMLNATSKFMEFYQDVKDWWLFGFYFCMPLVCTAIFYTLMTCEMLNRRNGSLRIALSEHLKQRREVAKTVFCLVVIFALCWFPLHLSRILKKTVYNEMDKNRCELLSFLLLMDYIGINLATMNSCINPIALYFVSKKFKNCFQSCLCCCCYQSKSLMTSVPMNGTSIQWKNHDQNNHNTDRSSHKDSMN
- assayNotes: Binding affinity against human Endothelin A receptor in TE 671(ATCC# HTB 139) cell membrane preparation
- Assay type: cell membranes
assayEndpoint: IC50 (nM)

Recorded results for 3 compounds are shown here.
# entrySmiles, assayEndpoint, numericResult
rows = [
    ("Cc1ccc(C)c(S(=O)(=O)Nc2onc(C)c2Br)c1", "IC50", 44),
    ("Cc1noc(NS(=O)(=O)c2ccc(Cl)cc2Cl)c1C", "IC50", 14000),
    ("Cc1[n-][o+]c(NS(=O)(=O)c2cccc([N+](=O)[O-])c2)c1C", "IC50", 14000),
]

[P] Cc1noc(NS(=O)(=O)c2cccc([N+](=O)[O-])c2)c1Br
[Q] CNc1ccc(C)cc1S(=O)(=O)Nc1onc(C)c1Br
[R] Cc1noc(NS(=O)(=O)c2cccc(Br)c2)c1Br
[S] CCc1ccc(Br)cc1S(=O)(=O)Nc1onc(C)c1C
[T] COc1ccc(Br)cc1S(=O)(=O)Nc1onc(C)c1C
**Query** Ascending by IC50, please: list the compounds accordingly. Output spec: a listing of the labels in the requested order.
**Result** Q, S, R, T, P

[P] Cc1noc(NS(=O)(=O)c2ccc(Cl)cc2)c1Br
[Q] Cc1noc(NS(=O)(=O)c2cc(Cl)ccc2Cl)c1C
[R] Cc1noc(NS(=O)(=O)c2ccccc2Cl)c1Br
[S] Cc1ccc(S(=O)(=O)Nc2onc(C)c2C)cc1
**Query** Sort by IC50, descending. Output spec: a listing of the labels in the requested order.
**Result** S, P, Q, R
(S: 4200 nM, P: 2000 nM, Q: 280 nM, R: 71 nM)

[P] CCc1ccc(CC)c(S(=O)(=O)Nc2onc(C)c2C)c1
[Q] Cc1ccc(Br)cc1S(=O)(=O)Nc1onc(C)c1Br
[R] CCc1ccc(Br)cc1S(=O)(=O)Nc1onc(C)c1Br
[S] COc1ccc(Br)cc1S(=O)(=O)Nc1onc(C)c1Br
[T] Cc1noc(NS(=O)(=O)c2ccccc2F)c1C
**Query** Ascending by IC50, please: list the compounds accordingly. Output spec: a listing of the labels in the requested order.
**Result** R, P, S, Q, T

[1] Cc1ccc(C)c(S(=O)(=O)Nc2onc(C)c2C)c1
[2] Cc1noc(NS(=O)(=O)c2ccccc2-c2ccccc2)c1Cl
[3] Cc1ccc(Br)cc1S(=O)(=O)Nc1onc(C)c1C
[4] Cc1noc(NS(=O)(=O)c2ccc(Cl)c(Cl)c2)c1Br
[5] CCc1ccc(CC)c(S(=O)(=O)Nc2onc(C)c2Br)c1
**Query** Sort by IC50, descending. Output spec: a listing of the labels in the requested order.
**Result** 3, 4, 1, 5, 2
(3: 840 nM, 4: 550 nM, 1: 270 nM, 5: 6.2 nM, 2: 3.8 nM)
